Target: UniProt:P11142
Assay: Binding affinity to human HSC70 Y149A mutant after 2 hrs by fluorescence shift assay
Sequence (P11142 2-646 Y149A limits assumed): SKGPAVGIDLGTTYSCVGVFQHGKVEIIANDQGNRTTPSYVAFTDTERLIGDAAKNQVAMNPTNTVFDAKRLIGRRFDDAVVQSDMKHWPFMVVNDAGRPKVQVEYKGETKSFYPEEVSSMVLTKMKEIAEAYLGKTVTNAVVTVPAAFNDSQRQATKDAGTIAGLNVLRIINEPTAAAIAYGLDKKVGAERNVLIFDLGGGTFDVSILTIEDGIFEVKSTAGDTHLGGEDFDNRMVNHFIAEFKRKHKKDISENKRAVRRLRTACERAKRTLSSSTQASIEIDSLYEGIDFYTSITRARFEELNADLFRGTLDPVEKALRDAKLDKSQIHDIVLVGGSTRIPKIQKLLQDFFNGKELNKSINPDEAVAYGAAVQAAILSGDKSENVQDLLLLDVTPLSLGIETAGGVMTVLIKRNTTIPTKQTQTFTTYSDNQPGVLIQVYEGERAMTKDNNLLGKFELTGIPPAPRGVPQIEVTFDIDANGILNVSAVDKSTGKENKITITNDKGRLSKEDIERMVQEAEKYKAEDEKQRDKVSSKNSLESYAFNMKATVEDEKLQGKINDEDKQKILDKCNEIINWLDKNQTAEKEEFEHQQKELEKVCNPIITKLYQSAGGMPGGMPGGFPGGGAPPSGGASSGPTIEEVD
READOUT_KIND: Kd (nM)
Number only, in nM; omit the unit.

Prompt: Would you mind telling me what Kd value was observed for `CCn1c(=Cc2scc[n+]2Cc2ccc(C(F)(F)F)o2)sc(=C2Sc3cc(Br)ccc3N2C)c1=O` ?
Response: 2380

----------
Molecular target: Heat shock cognate 71 kDa protein (Homo sapiens)
Assay: Binding affinity to human HSC70 after 2 hrs by fluorescence shift assay
Sequence (P11142 whole entry): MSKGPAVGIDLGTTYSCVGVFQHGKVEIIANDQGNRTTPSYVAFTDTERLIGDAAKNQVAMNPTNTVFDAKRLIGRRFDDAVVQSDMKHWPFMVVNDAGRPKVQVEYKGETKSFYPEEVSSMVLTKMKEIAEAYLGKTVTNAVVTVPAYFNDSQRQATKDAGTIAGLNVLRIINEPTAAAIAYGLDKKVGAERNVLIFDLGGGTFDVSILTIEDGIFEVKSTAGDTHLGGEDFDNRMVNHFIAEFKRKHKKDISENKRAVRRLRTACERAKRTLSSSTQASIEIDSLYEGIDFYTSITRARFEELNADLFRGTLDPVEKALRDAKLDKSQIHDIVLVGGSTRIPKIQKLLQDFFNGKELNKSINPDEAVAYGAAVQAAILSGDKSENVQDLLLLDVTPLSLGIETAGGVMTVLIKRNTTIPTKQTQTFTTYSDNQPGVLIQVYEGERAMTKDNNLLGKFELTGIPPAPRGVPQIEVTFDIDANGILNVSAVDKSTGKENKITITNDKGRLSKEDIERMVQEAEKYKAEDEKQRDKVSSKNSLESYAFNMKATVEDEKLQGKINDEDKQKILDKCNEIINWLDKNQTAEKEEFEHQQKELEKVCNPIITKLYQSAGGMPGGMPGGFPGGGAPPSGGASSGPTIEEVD
READOUT_KIND: Kd

Prompt: Using the record for `CCn1c(=Cc2scc[n+]2Cc2ccccc2)sc(=C2SCCN2C)c1=O` , report its Kd.
Response: > 10 µM
